test: Cytotoxicity against human HepG2 cells assessed as reduction in cell viability measured after 24 hrs in presence of galactose by MTT assay; format: cell-based
quantity kind: CC50 at 24 h (µM)
The reply should be a number in µM, with the unit left off.

State, in one line, measured CC50 at 24 h of `COC(=O)OCOc1c2n(ccc1=O)N(C(c1ccccc1)c1ccccc1)[C@@H]1COCCN1C2=O`
57

Using the record for `O=C1c2c(O)c(=O)ccn2N(C(c2ccccc2)c2ccccc2)[C@@H]2COCCN12` , state its measured CC50 at 24 h.
18

----------
assay: Cytotoxicity against MDCK cells assessed as reduction in cell viability by CellTiter-Glo assay; assay type: cell-based, Canis lupus familiaris; conditions: dog
quantity kind: CC50
Your answer should be a number followed by the unit of measure.

Please report the measured CC50 for `O=C1c2c(O)c(=O)ccn2N([C@@H](c2ccccc2)c2ccc(F)c(F)c2)[C@@H]2COCCN12`
12.1 µM

Report measured CC50; entry is `O=C1c2c(O)c(=O)ccn2N(C(c2ccc(F)c(F)c2)c2ccc(F)c(F)c2)[C@@H]2COCCN12`
13.8 µM

Supply recorded CC50 for `O=C1c2c(O)c(=O)ccn2N(C(c2ccc(F)cc2)c2ccc(F)cc2)[C@@H]2COCCN12` here.
13.3 µM

Using known records, supply CC50 for `O=C1c2c(O)c(=O)ccn2N(C(c2ccccc2)c2ccccc2)[C@@H]2COCCN12`
12.1 µM

For the compound `CSc1ccccc1[C@@H](c1ccc(F)c(F)c1)N1[C@@H]2COCCN2C(=O)c2c(O)c(=O)ccn21` , give its measured CC50 value.
9.8 µM

Supply CC50 value. Item: `CSc1ccccc1[C@H](c1ccc(F)c(F)c1)N1[C@@H]2COCCN2C(=O)c2c(O)c(=O)ccn21`
16.4 µM

Tell us which CC50 value is on record for `O=C1c2c(O)c(=O)ccn2N([C@H](c2ccccc2)c2ccc(F)c(F)c2)[C@@H]2COCCN12`
15.9 µM

Tell us which CC50 value is on record for O=C1c2c(O)c(=O)ccn2N([C@@H]2c3ccccc3SCc3c2ccc(F)c3F)[C@@H]2COCCN12 [BALOXAVIR]
5.6 µM

----------
assay: Cytotoxicity against human PBMC cells assessed as reduction in cell viability by ATP bioluminescence assay; assay type: cell-based
quantity kind: CC50
// unit must come after the numeric part

Give CC50 for the following molecule: `O=C1c2c(O)c(=O)ccn2N(C(c2ccccc2)c2ccccc2)[C@@H]2COCCN12`
21 µM

Look up and report measured CC50 for this entry: `COC(=O)OCOc1c2n(ccc1=O)N(C(c1ccccc1)c1ccccc1)[C@@H]1COCCN1C2=O`
100 µM

----------
assay: AUClast in CD1 mouse plasma at 10 mg/kg, po administered as single dose by LC-MS/MS analysis; format: ADME, organism-based; design: dose 10 mg/kg, route oral, time 0 - last
quantity kind: log10 AUC(0-t) (log10 of the value in ng·h/mL)
Scale type: logarithmic (base 10). Underlying AUC(0-t) unit: ng·h/mL.

Tell me its log10 AUC(0-t) given `O=C1c2c(O)c(=O)ccn2N([C@@H]2c3ccccc3SCc3c2ccc(F)c3F)[C@@H]2COCCN12` as the entry.
1.90

Give the value of log10 AUC(0-t) reported for the following: `O=C1c2c(O)c(=O)ccn2N([C@@H](c2ccccc2)c2ccc(F)c(F)c2)[C@@H]2COCCN12`
2.91

Input `O=C1c2c(O)c(=O)ccn2N(C(c2ccccc2)c2ccccc2)[C@@H]2COCCN12` , output reported log10 AUC(0-t).
3.38

Using the record for `O=C1c2c(O)c(=O)ccn2N(C(c2ccc(F)cc2)c2ccc(F)cc2)[C@@H]2COCCN12` , state its measured log10 AUC(0-t).
3.26

Fill in reported log10 AUC(0-t) for this entry: `O=C1c2c(O)c(=O)ccn2N([C@H](c2ccccc2)c2ccc(F)c(F)c2)[C@@H]2COCCN12`
2.48
